Hey, just so you know, these numbers are from patent US8889724B2.

# procedure text: Mouse oral single-dose pharmacokinetic study with Compound EB
# Format: in vivo
# study conditions: male, mouse, plasma, po, 100 mg/kg, male mice, 100 mg/kg single oral gavage, 0 hr; read-out: Compound EB concentration in plasma, average
property: concentration at 0 h

Record request: concentration at 0 h value, item Cc1cccc(C)c1COc1cccc(-c2nnn[nH]2)c1 0 µg/mL

====

# procedure text: Mouse oral single-dose pharmacokinetic study with Compound EB
# Assay type: in vivo
# study conditions: male, mouse, plasma, po, 100 mg/kg, male mice, 100 mg/kg single oral gavage, 0.5 hr; read-out: Compound EB concentration in plasma, average
# Experimental: Mouse Oral Single-Dose Pharmacokinetic Study with Compound EB Determination of the Plasma profile of Compound EB following single oral gavage administration to male mice: Test compounds were suspended in 1% HPMC using a tissue homogenizer to minimize particles and maximize uniformity of the suspension and stored at 4° C. The formulations was thoroughly mixed just prior to administration. […] Samples were frozen at −80° C. until analyzed using LC/MS-MS. […]
property: concentration at 0.5 h (µg/mL)
Lab book: enter the figure in µg/mL, no units written.

Record request: concentration at 0.5 h value, item Cc1cccc(C)c1COc1cccc(-c2nnn[nH]2)c1 183
